Biological target: CDK4/Cyclin D3 complex (Homo sapiens)
Sequence (P11802 whole entry): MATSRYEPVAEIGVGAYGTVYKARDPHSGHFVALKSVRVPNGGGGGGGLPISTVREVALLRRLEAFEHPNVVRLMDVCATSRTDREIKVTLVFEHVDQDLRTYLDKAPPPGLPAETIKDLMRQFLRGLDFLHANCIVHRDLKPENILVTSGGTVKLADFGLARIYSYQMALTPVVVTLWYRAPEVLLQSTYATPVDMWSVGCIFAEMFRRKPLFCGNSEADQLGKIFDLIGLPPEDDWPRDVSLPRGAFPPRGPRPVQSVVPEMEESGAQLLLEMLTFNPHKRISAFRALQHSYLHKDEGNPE
Sequence (P30281 whole entry partner): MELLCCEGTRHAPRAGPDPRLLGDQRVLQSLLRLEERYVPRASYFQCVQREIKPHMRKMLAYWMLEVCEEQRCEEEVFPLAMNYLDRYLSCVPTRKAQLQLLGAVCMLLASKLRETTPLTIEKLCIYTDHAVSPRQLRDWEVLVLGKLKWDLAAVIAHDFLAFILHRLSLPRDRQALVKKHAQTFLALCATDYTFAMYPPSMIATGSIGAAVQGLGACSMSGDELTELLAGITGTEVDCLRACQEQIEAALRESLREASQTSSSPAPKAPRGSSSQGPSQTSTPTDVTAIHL
Conditions: read-out: CDK4* (Ki); Table 2
parameter measured: pKi
One number for each entry, as −log10 of the molar value.

[in] Please report pKi with CDK4/Cyclin D3 complex (Homo sapiens) for item CCOCc1cc(O)c(OC)cc1-c1ccc2c(-c3nc4ccccc4[nH]3)n[nH]c2c1 [Reference Example 24(l)] .
[out] 7.89

====

Conditions: mouse, in vivo, ip, 25 mg/kg, pH 2.3
parameter measured: log10(AUCleast) (log10 of the value in ng·h/mL)
Hello, just confirming the data are log10 of AUCleast with units of ng·h/mL.

{"compound": "CCOCCNC(=O)c1ccccc1Sc1ccc2c(/C=C/c3ccccn3)n[nH]c2c1 [35 (z)]", "parameter measured": "log10(AUCleast)", "value": 2.92}
{"compound": "O=C(c1cccc(NC(=O)c2cccc3[nH]ccc23)c1)c1ccc2c(/C=C/c3ccccn3)n[nH]c2c1", "parameter measured": "log10(AUCleast)", "value": 4.01}
{"compound": "O=C(Nc1nccs1)c1ccccc1Sc1ccc2c(/C=C/c3ccccn3)n[nH]c2c1", "parameter measured": "log10(AUCleast)", "value": 2.20}
{"compound": "O=C(Nc1cccc(Cl)c1)c1ccccc1Sc1ccc2c(/C=C/c3ccccn3)n[nH]c2c1", "parameter measured": "log10(AUCleast)", "value": 3.71}
{"compound": "O=C(NNC(=O)c1ccccc1Sc1ccc2c(/C=C/c3ccccn3)n[nH]c2c1)c1cccs1", "parameter measured": "log10(AUCleast)", "value": 2.35}
{"compound": "O=C(Nc1cccc(C(=O)c2ccc3c(/C=N/n4cccc4)n[nH]c3c2)c1)c1ccccc1", "parameter measured": "log10(AUCleast)", "value": 4.06}

I'm hoping you can list log10(AUCleast) for every compound here, please.
1. O=C(NCC(F)(F)F)c1ccccc1Sc1ccc2c(/C=C/c3ccccn3)n[nH]c2c1
2. CCNC(=O)c1ccccc1Sc1ccc2c(/C=C/c3ccccn3)n[nH]c2c1
3. C=CCONC(=O)c1ccccc1Sc1ccc2c(/C=C/c3ccccn3)n[nH]c2c1
4. O=C(Nc1cccc(C(=O)c2ccc3c(/C=C/c4ccccn4)n[nH]c3c2)c1)c1ccccc1
5. CC(C)NC(=O)c1ccccc1Sc1ccc2c(/C=C/c3ccccn3)n[nH]c2c1

[out]
[3.28, 2.98, 3.98, 4.30, 3.45]

[in] Answer with the recorded log10(AUCleast) for the compound listed here: Cc1cc(C(=O)Nc2cccc(C(=O)c3ccc4c(/C=C/c5ccccn5)n[nH]c4c3)c2)n[nH]1
[out] 3.28

====

Molecular target: phosphorylated Tie-2 (aa 775-1122) (Homo sapiens, UniProt Q02763)
Construct: 4 to 12 nM phosphorylated Tie-2 (aa 775-1122); made in house; host or cells: insect cells
Sequence (Q02763 775-1122): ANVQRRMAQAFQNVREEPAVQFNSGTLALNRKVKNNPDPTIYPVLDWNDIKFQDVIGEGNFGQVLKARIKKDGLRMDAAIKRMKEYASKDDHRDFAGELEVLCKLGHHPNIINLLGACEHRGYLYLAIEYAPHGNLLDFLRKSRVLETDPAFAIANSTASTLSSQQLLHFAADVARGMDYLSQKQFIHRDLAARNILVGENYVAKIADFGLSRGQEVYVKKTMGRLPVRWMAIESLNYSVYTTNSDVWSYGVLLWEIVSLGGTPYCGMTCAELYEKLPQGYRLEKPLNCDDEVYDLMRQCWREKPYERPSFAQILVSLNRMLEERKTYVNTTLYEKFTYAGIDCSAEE
Test: TIE-2 spectrophotometric assay
Type: biochemical
Details: Table 5; 1 µM; bold values spectrophotometric assay, non-bolded DELFIA assay (bold not visible here); read-out: % Inhibition @ 1 µM Tie2-P
Please respond with reported inhibition at 1 µM for every item in the list.
Answers are plain numbers, in %.

// solved cases for inhibition at 1 µM follow
{"molecule": "CN(c1cccc(NC(=O)OCc2ccccc2)c1)c1ccc2c(/C=C/c3ccccc3)n[nH]c2c1", "parameter measured": "inhibition at 1 µM", "unit of measurement": "%", "value": 17}
{"molecule": "C=C(c1cccc(N)c1)c1ccc2c(/C=C/c3ccccc3)n[nH]c2c1", "parameter measured": "inhibition at 1 µM", "unit of measurement": "%", "value": 27}
{"molecule": "C=C(c1cccc(NC(C)=O)c1)c1ccc2c(/C=C/c3ccccc3)n[nH]c2c1", "parameter measured": "inhibition at 1 µM", "unit of measurement": "%", "value": 5}

I'm hoping you can list inhibition at 1 µM for every molecule here, please.
1. Cc1cc(C(=O)Nc2cccc(C(=O)c3ccc4c(/C=C/c5ccccn5)n[nH]c4c3)c2)n(C)n1 [Reference Example 41(p)]
2. C=C(c1cccc(NC(=O)c2ncc(C)s2)c1)c1ccc2c(/C=C/c3ccccc3)n[nH]c2c1

[out]
[49, 8]

I'm hoping you can list inhibition at 1 µM for every molecule here, please.
1. CCONC(=O)c1ccccc1Sc1ccc2c(/C=C/c3ccccn3)n[nH]c2c1 [Reference Example 35(dd)]
2. Cc1cccc(C(=O)Nc2cccc(N(C)c3ccc4c(/C=C/c5ccc6c(c5)OCO6)n[nH]c4c3)c2)c1
3. O=C(Nc1cccc(Oc2ccc3c(/C=C/c4ccccc4)n[nH]c3c2)c1)c1ccccc1
4. CCCn1nc(C)cc1C(=O)Nc1cccc(C(=O)c2ccc3c(/C=C/c4ccccn4)n[nH]c3c2)c1 [Reference Example 41(r)]
5. CN(c1cccc(N)c1)c1ccc2c(/C=C/c3ccccc3)n[nH]c2c1
6. Cc1cnc(C(=O)Nc2cccc(C(=O)c3ccc4c(/C=C/c5ccccc5)n[nH]c4c3)c2)s1

[out]
[48, 52, 69, 56, 40, 15]
